Attribution: BigSolDB 2.1

- condition_set: in n-propanol, 335.65 K
recorded_metric: solubility (mole fraction)
Answers are plain numbers.

**Q:** Consider the molecule COC(=O)/C=C/C(=O)OC and give its recorded solubility (mole fraction).
**A:** 0.087

====

- condition_set: in n-propanol, 338.15 K
recorded_metric: solubility (mole fraction)

**Q:** Tell me solubility (mole fraction) reported for COC(=O)/C=C/C(=O)OC
**A:** 0.106

====

- condition_set: in ethanol, 307.3 K
recorded_metric: solubility (mole fraction)
Numbers only.

**Q:** Consider the compound COC(=O)/C=C/C(=O)OC and give its recorded solubility (mole fraction).
**A:** 0.0122

====

- condition_set: in methanol, 305.55 K
recorded_metric: solubility (mole fraction)
Give bare numbers.

**Q:** Give the measured solubility (mole fraction) for COC(=O)/C=C/C(=O)OC
**A:** 0.0122

====

- condition_set: in propylene glycol, 307.05 K
recorded_metric: solubility (mole fraction)
One number for each entry.

**Q:** Fill in solubility (mole fraction) for record COC(=O)/C=C/C(=O)OC
**A:** 0.000797

====

- condition_set: in water, 300.55 K
recorded_metric: solubility (mole fraction)

**Q:** Tell us which solubility (mole fraction) value is on record for COC(=O)/C=C/C(=O)OC
**A:** 9.27e-05

====

- condition_set: in propylene glycol, 314.25 K
recorded_metric: solubility (mole fraction)

**Q:** Provide measured solubility (mole fraction) value, entry: COC(=O)/C=C/C(=O)OC
**A:** 0.00255

====

- condition_set: in water, 309.85 K
recorded_metric: solubility (mole fraction)
Numbers only.

**Q:** Tell us which solubility (mole fraction) value is on record for COC(=O)/C=C/C(=O)OC
**A:** 0.000236

====

- condition_set: in n-propanol, 304.35 K
recorded_metric: solubility (mole fraction)
Answers are plain numbers.

**Q:** Retrieve solubility (mole fraction) measured for COC(=O)/C=C/C(=O)OC and print it.
**A:** 0.00906

====

- condition_set: in propylene glycol, 316.75 K
recorded_metric: solubility (mole fraction)
Answers are plain numbers.

**Q:** Retrieve solubility (mole fraction) measured for COC(=O)/C=C/C(=O)OC and print it.
**A:** 0.00366

====

- condition_set: in isopropanol, 312.55 K
recorded_metric: solubility (mole fraction)

**Q:** Return the recorded solubility (mole fraction) value; entry: COC(=O)/C=C/C(=O)OC
**A:** 0.0183

====

- condition_set: in n-propanol, 307.85 K
recorded_metric: solubility (mole fraction)
Give bare numbers.

**Q:** Answer with reported solubility (mole fraction) of COC(=O)/C=C/C(=O)OC
**A:** 0.0114

====

- condition_set: in isopropanol, 309.85 K
recorded_metric: solubility (mole fraction)
One number for each entry.

**Q:** Dear colleague, please send me the reported solubility (mole fraction) for COC(=O)/C=C/C(=O)OC when you can.
**A:** 0.0148

====

- condition_set: in isopropanol, 329.75 K
recorded_metric: solubility (mole fraction)
Numbers only.

**Q:** Check the records and state solubility (mole fraction) for COC(=O)/C=C/C(=O)OC
**A:** 0.0629

====

- condition_set: in water, 333.25 K
recorded_metric: solubility (mole fraction)
One number for each entry.

**Q:** Given the molecule COC(=O)/C=C/C(=O)OC , write its reported solubility (mole fraction).
**A:** 0.000989

====

- condition_set: in isopropanol, 320 K
recorded_metric: solubility (mole fraction)
Numbers only.

**Q:** Item COC(=O)/C=C/C(=O)OC : provide solubility (mole fraction)
**A:** 0.0318

====

- condition_set: in ethanol, 322.55 K
recorded_metric: solubility (mole fraction)
Answers are plain numbers.

**Q:** Report solubility (mole fraction) for COC(=O)/C=C/C(=O)OC
**A:** 0.0326

====

- condition_set: in n-propanol, 332.5 K
recorded_metric: solubility (mole fraction)
Numbers only.

**Q:** Annotate the compound COC(=O)/C=C/C(=O)OC with its measured solubility (mole fraction).
**A:** 0.0686

====

- condition_set: in methanol, 309.17 K
recorded_metric: solubility (mole fraction)
One number for each entry.

**Q:** Check the records and state solubility (mole fraction) for COC(=O)/C=C/C(=O)OC
**A:** 0.0152

====

- condition_set: in ethanol, 289.95 K
recorded_metric: solubility (mole fraction)
Answers are plain numbers.

**Q:** Name the recorded solubility (mole fraction) of the molecule listed here: COC(=O)/C=C/C(=O)OC
**A:** 0.00328

====

- condition_set: in n-propanol, 313.2 K
recorded_metric: solubility (mole fraction)
Answers are plain numbers.

**Q:** Dear colleague, please send me the reported solubility (mole fraction) for COC(=O)/C=C/C(=O)OC when you can.
**A:** 0.0174

====

- condition_set: in n-propanol, 310.7 K
recorded_metric: solubility (mole fraction)
Numbers only.

**Q:** Supply measured solubility (mole fraction) of COC(=O)/C=C/C(=O)OC in your reply.
**A:** 0.0138

====

- condition_set: in methanol, 319.37 K
recorded_metric: solubility (mole fraction)
Numbers only.

**Q:** Output measured solubility (mole fraction) for this item: COC(=O)/C=C/C(=O)OC
**A:** 0.0279

====

- condition_set: in ethanol, 294.45 K
recorded_metric: solubility (mole fraction)
Give bare numbers.

**Q:** State its solubility (mole fraction) for this compound: COC(=O)/C=C/C(=O)OC
**A:** 0.00465

====

- condition_set: in ethanol, 331.85 K
recorded_metric: solubility (mole fraction)
Answers are plain numbers.

**Q:** Identify measured solubility (mole fraction) associated with COC(=O)/C=C/C(=O)OC
**A:** 0.058

====

- condition_set: in water, 302.6 K
recorded_metric: solubility (mole fraction)
One number for each entry.

**Q:** Give the reported value of solubility (mole fraction) for this record: COC(=O)/C=C/C(=O)OC
**A:** 0.000116

====

- condition_set: in n-propanol, 295.2 K
recorded_metric: solubility (mole fraction)
Answers are plain numbers.

**Q:** Please supply the value of reported solubility (mole fraction) for the item COC(=O)/C=C/C(=O)OC
**A:** 0.00504

====

- condition_set: in ethanol, 297.55 K
recorded_metric: solubility (mole fraction)
Answers are plain numbers.

**Q:** Supply recorded solubility (mole fraction) for COC(=O)/C=C/C(=O)OC here.
**A:** 0.00607

====

- condition_set: in isopropanol, 306.7 K
recorded_metric: solubility (mole fraction)
One number for each entry.

**Q:** Assign solubility (mole fraction) to the following record: COC(=O)/C=C/C(=O)OC
**A:** 0.0117

====

- condition_set: in methanol, 329.15 K
recorded_metric: solubility (mole fraction)

**Q:** # return recorded solubility (mole fraction) for entry COC(=O)/C=C/C(=O)OC
**A:** 0.0491

====

- condition_set: in propylene glycol, 310.55 K
recorded_metric: solubility (mole fraction)

**Q:** For COC(=O)/C=C/C(=O)OC , write its solubility (mole fraction).
**A:** 0.00143

====

- condition_set: in ethanol, 303.15 K
recorded_metric: solubility (mole fraction)
Answers are plain numbers.

**Q:** For the compound COC(=O)/C=C/C(=O)OC , give its measured solubility (mole fraction) value.
**A:** 0.00908

====

- condition_set: in methanol, 312.85 K
recorded_metric: solubility (mole fraction)
Answers are plain numbers.

**Q:** Give the measured solubility (mole fraction) for COC(=O)/C=C/C(=O)OC
**A:** 0.0189

====

- condition_set: in ethanol, 318.65 K
recorded_metric: solubility (mole fraction)

**Q:** Please report the measured solubility (mole fraction) for COC(=O)/C=C/C(=O)OC
**A:** 0.0253

====

- condition_set: in propylene glycol, 320.05 K
recorded_metric: solubility (mole fraction)
Answers are plain numbers.

**Q:** Return solubility (mole fraction) for the following compound: COC(=O)/C=C/C(=O)OC
**A:** 0.00586

====

- condition_set: in propylene glycol, 327.95 K
recorded_metric: solubility (mole fraction)
Answers are plain numbers.

**Q:** Quote solubility (mole fraction) reported for COC(=O)/C=C/C(=O)OC please.
**A:** 0.0149

====

- condition_set: in propylene glycol, 323.25 K
recorded_metric: solubility (mole fraction)
Give bare numbers.

**Q:** Let me know recorded solubility (mole fraction) for COC(=O)/C=C/C(=O)OC , thanks.
**A:** 0.00886

====

- condition_set: in water, 315.45 K
recorded_metric: solubility (mole fraction)
Give bare numbers.

**Q:** Provide measured solubility (mole fraction) value, entry: COC(=O)/C=C/C(=O)OC
**A:** 0.000365

====

- condition_set: in propylene glycol, 337.25 K
recorded_metric: solubility (mole fraction)
Numbers only.

**Q:** Assign solubility (mole fraction) to the following record: COC(=O)/C=C/C(=O)OC
**A:** 0.0349

====

- condition_set: in ethanol, 314.75 K
recorded_metric: solubility (mole fraction)
Numbers only.

**Q:** Note solubility (mole fraction) for the molecule shown: COC(=O)/C=C/C(=O)OC
**A:** 0.0199
